# Assayed system: SARS-CoV-2(2019-nCoV)Spike Protein(S1 Subunit,His Tag) (SARS-CoV-2 (2019-nCoV), UniProt P0DTC2 16-685)
Measurement name: pEC50
# pEC50: negative log10 of molar concentration; output just the value

PR301564 (antibody, V domains shown) VH: QVQLVQSGAEVKKPGASVKISCKTSGYTFTEYTMYWVRQAPGQRLEWMGGINPNNGDTSYNQKFKGRATLTVDKSATTAYMELSSLRSEDTAVYYCARDGYPYYFAMDYWGQGTTVTVSS VL: DIQMTQSPSSLSASVGDRVTITCKASQNVDTNVAWYQQKPGKAPKGLIYSASSRYSGVPSRFSGSGSGTDFTLTISSVQPEDLATYFCQQYNTYPWTFGQGTKVEIK ... 10.81

Turning now to a further record.
Look up pEC50 for this binder: PR301445 (antibody, V domains shown) VH: QVQLVQSGAEVKKPGASVKISCKTSGYTFTEYTMYWVRQAPGQRLEWMGGINPNNGDTSYNQKFKGRATLTVDKSATTAYMELSSLRSEDTAVYYCARDGYPYYFAMDYWGQGTTVTVSS VL: DIQMTQSPSSLSASVGDRVTITCKASQNVDTNVAWYQQKPGKAPKGLIYSASHRYSGVPSRFSGSGSGTDFTLTISSVQPEDLATYFCQQYNTYPWTFGQGTKVEIK
10.83
